# Study target: T1, human CLDN6 (human, UniProt P56747 1-220)
# T1 construct: In the flow cytometry it was expressed on 293T cells from human CLDN6/pCMV-Entry bought from OriGene; It was also expressed on CHO-K1 cells by cDNA transfection, and the endogenous protein was immunoprecipitated from NTERA-2 cell lysate; also called claudin-6; hCLDN6
# T1 sequence: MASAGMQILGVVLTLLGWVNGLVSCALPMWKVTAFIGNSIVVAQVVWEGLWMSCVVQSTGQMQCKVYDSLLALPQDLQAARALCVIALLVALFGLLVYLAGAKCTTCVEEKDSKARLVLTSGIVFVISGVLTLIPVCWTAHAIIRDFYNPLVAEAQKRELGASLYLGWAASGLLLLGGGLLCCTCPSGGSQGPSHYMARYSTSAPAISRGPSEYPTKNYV
# Protocol: flow cytometry on 293T cells transiently transfected with human CLDN6
Value type: binding result

{"columns": ["Binder", "Val"],
 "data": [
  ["humanized anti-CLDN6 antibody H2L2 (antibody, human IgG1, kappa, L234A L235A, V domains shown, Heavy chain hH2 with light chain hL2; Human IgG1 LALA constant region and human kappa light chain; also called H2L2 antibody) VH: EVQLVQSGAEVKKPGASVKVSCKTSGYTFTEYTMHWVRQAPGKSLEWMGGVNPNSGDTSYAQKFQGRVTITADTSTSTAYMELSSLRSEDTAVYYCARPGGYDVGYYAMDYWGQGTLVTVSS VL: DIQMTQSPSSLSASVGDRVTITCRASQDINNYLNWYQQKPGKAVKLLIYFTSRLHSGVPSRFSGSGSGTHYTLTISSLQPEDFATYYCQQGYPLPWTFGQGTKVEIKR", "binds"],
  ["humanized anti-CLDN6 antibody H3L3 (antibody, human IgG1, kappa, L234A L235A, V domains shown, Heavy chain hH3 with light chain hL3; Human IgG1 LALA constant region and human kappa light chain; also called H3L3 antibody) VH: EVQLVQSGAEVKKPGASVKVSCKTSGYTFTEYTMHWVRQAPGQGLEWMGGVNPNSGDTSYAQKFQGRVTLTVDKSTSTAYMELSSLRSEDTAVYYCARPGGYDVGYYAMDYWGQGTLVTVSS VL: DIQMTQSPSSLSASVGDRVTITCRASQDINNYLNWYQQKPGGAVKLLIYFTSRLHSGVPSRFSGSGSGTDYTLTISSLQPEDFATYYCQQGYPLPWTFGGGTKVEIKR", "binds"]
]}
